Species: Rattus norvegicus
Test name: Open TG-GATES - Regimen: Single
Assay type: toxicity, organism-based, Sprague-Dawley
Parameters: regimen Single, gender Male, age 6 weeks
Test settings: in vivo, po, 0 mg/kg, 24 h, tissue Plasma, route gavage, dose level Control
Parameter: Cl (meq/L)
State the answer as a number, implicitly in meq/L.

Use the examples below as a reference point.
Molecule: CCCNC(=O)NS(=O)(=O)c1ccc(Cl)cc1 [CHLORPROPAMIDE]
Parameter: Cl
Measured: 105.4

Molecule: COc1ccc2[nH]c([S+]([O-])Cc3ncc(C)c(OC)c3C)nc2c1 (centres undefined) [OMEPRAZOLE]
Parameter: Cl
Measured: 101.2

Molecule: CC/C(=C(\c1ccccc1)c1ccc(OCCN(C)C)cc1)c1ccccc1 [TAMOXIFEN]
Parameter: Cl
Measured: 107.2

Molecule: CN(C)CCN(Cc1cccs1)c1ccccn1
Parameter: Cl
Measured: 105.6

Quick note, Cl for COc1cc2c(c(OC)c1OC)-c1ccc(OC)c(=O)cc1[C@@H](NC(C)=O)CC2 [COLCHICINE] landed at 102.8

The reported Cl of the molecule NC(N)=Nc1nc(CSCCC(N)=NS(N)(=O)=O)cs1 [FAMOTIDINE] was 102.6

The reported value for CC1=C(/C=C/C(C)=C/C=C/C(C)=C/CO)C(C)(C)CCC1 [RETINOL] in terms of Cl is 105.6

Consider COC1=CC(=O)C[C@@H](C)[C@]12Oc1c(Cl)c(OC)cc(OC)c1C2=O [GRISEOFULVIN] . Its measured Cl is 104

Sample C[C@@H]1C[C@H]2[C@@H]3CCC4=CC(=O)C=C[C@]4(C)[C@@]3(F)[C@@H](O)C[C@]2(C)[C@@]1(O)C(=O)CO [DEXAMETHASONE] ; Cl observed: 103

---

Species: Rattus norvegicus
Test name: Open TG-GATES - Regimen: Daily Repeat
Assay type: toxicity, organism-based, Sprague-Dawley
Set-up: regimen Daily Repeat, gender Male, age 6 weeks
Test settings: in vivo, po, 1000 mg/kg, […], tissue Blood, route gavage, dose level High, time 28 day
Parameter: WBC (x10_2/uL)
Numeric answer only, unit x10_2/uL assumed.

Example entries and their recorded answers appear below.
Compound: NC(N)=Nc1nc(CSCCC(N)=NS(N)(=O)=O)cs1
Unit annotation: x10_2/uL
WBC: 114.1
//
Compound: CCOC(=O)CCC(=O)O[C@H]1[C@H](O[C@@H]2[C@@H](C)[C@H](O[C@H]3C[C@@](C)(OC)[C@@H](O)[C@H](C)O3)[C@@H](C)C(=O)O[C@H](CC)[C@@](C)(O)[C@H](O)[C@@H](C)C(=O)[C@H](C)C[C@@]2(C)O)O[C@H](C)C[C@@H]1N(C)C [ERYTHROMYCIN ETHYLSUCCINATE]
Unit annotation: x10_2/uL
WBC: 79.8
//
Compound: CC(C)OC(=O)C(C)(C)Oc1ccc(C(=O)c2ccc(Cl)cc2)cc1 [FENOFIBRATE]
Unit annotation: x10_2/uL
WBC: 132.1
//
Compound: CCOc1ccc(NC(=O)CC(C)O)cc1 (stereo unspecified)
Unit annotation: x10_2/uL
WBC: 137.4

# WBC (compound: COc1ccc2[nH]c([S+]([O-])Cc3ncc(C)c(OC)c3C)nc2c1 (stereo unspecified) ) is 152.6

For this compound ( COC1=CC(=O)C[C@@H](C)[C@]12Oc1c(Cl)c(OC)cc(OC)c1C2=O ), measured WBC is 158.4

---

Species: Rattus norvegicus
Test name: Open TG-GATES - Regimen: Daily Repeat
Type: toxicity, organism-based, Sprague-Dawley
Set-up: regimen Daily Repeat, gender Male, age 6 weeks
Test settings: in vivo, po, 300 mg/kg, […], tissue Plasma, route gavage, dose level Middle, time 14 day
Parameter: Cl (meq/L)
Write the number in meq/L without appending the unit.

// CCOc1ccc(NC(=O)CC(C)O)cc1 (stereo not given) : Cl value = 104

Kindly note the recorded Cl for COc1ccc2[nH]c([S+]([O-])Cc3ncc(C)c(OC)c3C)nc2c1 (stereo not given) , which is 101.6

For reference, reported Cl for COC1=CC(=O)C[C@@H](C)[C@]12Oc1c(Cl)c(OC)cc(OC)c1C2=O stands at 102.8

GET /value?item= CCOC(=O)CCC(=O)O[C@H]1[C@H](O[C@@H]2[C@@H](C)[C@H](O[C@H]3C[C@@](C)(OC)[C@@H](O)[C@H](C)O3)[C@@H](C)C(=O)O[C@H](CC)[C@@](C)(O)[C@H](O)[C@@H](C)C(=O)[C@H](C)C[C@@]2(C)O)O[C@H](C)C[C@@H]1N(C)C [ERYTHROMYCIN ETHYLSUCCINATE] &field=Cl returns 107.6

Measured Cl of NC(N)=Nc1nc(CSCCC(N)=NS(N)(=O)=O)cs1 : 103.2

---

Known TC of a selection of compounds
Organism: Rattus norvegicus
Test name: Open TG-GATES - Regimen: Daily Repeat
Assay type: toxicity, organism-based, Sprague-Dawley
Parameters: regimen Daily Repeat, gender Male, age 6 weeks
Test settings: in vivo, po, 0 mg/kg, 72 h, tissue Plasma, route gavage, dose level Control, time 3 day
Answer with a number only, understood to be in mg/dL.

Consider the reported TC for these compounds:
Compound: NNC(=O)c1ccncc1
Unit annotation: mg/dL
TC: 85.8
//
Compound: CCOc1ccc(NC(=O)CC(C)O)cc1 (stereo not given)
Unit annotation: mg/dL
TC: 82.4
//
Compound: CCCNC(=O)NS(=O)(=O)c1ccc(Cl)cc1 [CHLORPROPAMIDE]
Unit annotation: mg/dL
TC: 80.4
//
Compound: COC1=CC(=O)C[C@@H](C)[C@]12Oc1c(Cl)c(OC)cc(OC)c1C2=O
Unit annotation: mg/dL
TC: 69

get_value(item= CC1=C(/C=C/C(C)=C/C=C/C(C)=C/CO)C(C)(C)CCC1 , readout=TC) returns 76.2

---

Species on record: Rattus norvegicus
Test name: Open TG-GATES - Regimen: Single
Format: toxicity, organism-based, Sprague-Dawley
Set-up: regimen Single, gender Male, age 6 weeks
Test settings: in vivo, po, 10 mg/kg, 3 h, tissue Blood, route gavage, dose level Low
Parameter: PT (s)
Hi! Could you send only the number? It should be in s, unit omitted.

// below: answered compounds
Structure smiles string: CC1=C(/C=C/C(C)=C/C=C/C(C)=C/CO)C(C)(C)CCC1
Measured: 15.9

Structure smiles string: CN(C)CCCN1c2ccccc2CCc2ccccc21
Measured: 16

Structure smiles string: CN(C)CCN(Cc1cccs1)c1ccccn1
Measured: 16.4

Short answer for CN(C)CCCN1c2ccccc2CCc2ccc(Cl)cc21 : PT was 13.5

---

Organism: Rattus norvegicus
Test name: Open TG-GATES - Regimen: Single
Format: toxicity, organism-based, Sprague-Dawley
Set-up: regimen Single, gender Male, age 6 weeks
Test settings: in vivo, po, 100 mg/kg, 3 h, tissue Plasma, route gavage, dose level Low
Items are presented alongside their recorded AST.

Compound: COc1ccc2[nH]c([S+]([O-])Cc3ncc(C)c(OC)c3C)nc2c1 (centres undefined)
Parameter: AST
Measured: 73.6 IU/L
--
Compound: COC1=CC(=O)C[C@@H](C)[C@]12Oc1c(Cl)c(OC)cc(OC)c1C2=O
Parameter: AST
Measured: 66.8 IU/L
--
Compound: CCOC(=O)CCC(=O)O[C@H]1[C@H](O[C@@H]2[C@@H](C)[C@H](O[C@H]3C[C@@](C)(OC)[C@@H](O)[C@H](C)O3)[C@@H](C)C(=O)O[C@H](CC)[C@@](C)(O)[C@H](O)[C@@H](C)C(=O)[C@H](C)C[C@@]2(C)O)O[C@H](C)C[C@@H]1N(C)C [ERYTHROMYCIN ETHYLSUCCINATE]
Parameter: AST
Measured: 78 IU/L

Shifting focus to the compound that follows.
Reported AST for NC(N)=Nc1nc(CSCCC(N)=NS(N)(=O)=O)cs1 was 64.8 IU/L

---

Species on record: Rattus norvegicus
Test name: Open TG-GATES - Regimen: Single
Assay type: toxicity, organism-based, Sprague-Dawley
Design: regimen Single, gender Male, age 6 weeks
Test settings: in vivo, po, 0 mg/kg, 9 h, tissue Plasma, route gavage, dose level Control
Parameter: Ca (mg/dL)
Provide the reading as a plain figure in mg/dL.

Molecule: CCOC(=O)CCC(=O)O[C@H]1[C@H](O[C@@H]2[C@@H](C)[C@H](O[C@H]3C[C@@](C)(OC)[C@@H](O)[C@H](C)O3)[C@@H](C)C(=O)O[C@H](CC)[C@@](C)(O)[C@H](O)[C@@H](C)C(=O)[C@H](C)C[C@@]2(C)O)O[C@H](C)C[C@@H]1N(C)C [ERYTHROMYCIN ETHYLSUCCINATE]
Unit annotation: mg/dL
Ca: 10.5

Per the records, this molecule ( CC1=C(/C=C/C(C)=C/C=C/C(C)=C/CO)C(C)(C)CCC1 [RETINOL] ) has Ca equal to 10.8

Ca measured on COc1ccc2[nH]c([S+]([O-])Cc3ncc(C)c(OC)c3C)nc2c1 (stereo not drawn) [OMEPRAZOLE] = 10.7

Summary for this molecule, CCOc1ccc(NC(=O)CC(C)O)cc1 (stereo not drawn) [BUCETIN] : Ca is 10.5

GET /value?item= O=C(CCCN1CCC(O)(c2ccc(Cl)cc2)CC1)c1ccc(F)cc1 [HALOPERIDOL] &field=Ca returns 10.5

Lab note: NC(N)=Nc1nc(CSCCC(N)=NS(N)(=O)=O)cs1 [FAMOTIDINE] gave Ca of 10.4

Value of Ca reported for the molecule CN(C)CCN(Cc1cccs1)c1ccccn1 is 10.1

Entry under test: COC1=CC(=O)C[C@@H](C)[C@]12Oc1c(Cl)c(OC)cc(OC)c1C2=O [GRISEOFULVIN] . Its Ca was 10.4
